# target_system: T1, Claudin 18.2 (CLDN18.2), expressed on CHOS-CLDN 18.2 / HEK293-CLDN 18.2 / HCC827-CLDN 18.2 cells (human, UniProt P56856-2 1-261)
# T1 construct: whole, on cells; The species is not repeated for the CHOS-CLDN 18.2 cells; also called claudin-18A2
# assay_summary: FACS, CHOS-CLDN18.2 cells, 5 µg/ml
outcome_measure: FACS reading
Respond with the number and no other words.

Please fill in: FACS reading reported for QP024025 (antibody, human IgG1, V domains shown, also called IMAB362; 175D10(IMAB362)) VH: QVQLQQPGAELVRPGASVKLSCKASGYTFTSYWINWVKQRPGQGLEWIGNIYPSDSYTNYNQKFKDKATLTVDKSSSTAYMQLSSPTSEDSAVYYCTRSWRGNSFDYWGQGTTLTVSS VL: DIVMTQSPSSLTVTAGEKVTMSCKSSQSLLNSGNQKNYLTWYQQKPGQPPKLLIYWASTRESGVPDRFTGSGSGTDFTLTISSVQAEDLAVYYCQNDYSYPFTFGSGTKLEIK = 105000
